- System: Plasmodium yoelii nigeriensis
- procedure-summary: Antimalarial activity as reduced parasitaemia against multidrug-resistant Plasmodium yoelii nigeriensis infected Swiss mice (Mus musculus) at 96mg/kg peroral dose at day 4
- Format: functional
- Set-up: scale not given: the % may be the effect or the level left
Recorded Activity for the following compounds
I only need the number, in %, no unit after it.

C=C(c1ccccc1)C1CCOC2(CCC(Nc3ccc(F)cc3)CC2)OO1 (mixture of isomers) :: 63.18
C=C(c1ccc(-c2ccccc2)cc1)C1CCOC2(CCC(Nc3ccc(F)cc3)CC2)OO1 (mixture of isomers) :: 98.08
C=C(c1ccc(Cl)cc1)C1CCOC2(CCC(Nc3ccccc3)CC2)OO1 (mixture of isomers) :: 98.49

# evaluate next
Recorded Activity of C=C(c1ccc(-c2ccccc2)cc1)C1CCOC2(CCC(Nc3ccccc3)CC2)OO1 (mixture of isomers) , please.
100

---

- Test system: Plasmodium yoelii nigeriensis
- procedure-summary: Antimalarial activity as reduced parasitaemia against multidrug-resistant Plasmodium yoelii nigeriensis infected Swiss mice (Mus musculus) at 96mg/kg peroral dose at day 4
- Format: functional
- Design: scale not given: the % may be the effect or the level left
The label is Met for Activity below 90% and Not met for Activity equal to or exceeding 90%.

C=C(c1ccccc1)C1CCOC2(CCC(Nc3ccc(C(F)(F)F)cc3)CC2)OO1 (mixture of isomers) :: Not met

is_below(Activity, 90%) for C=C(c1ccc(-c2ccccc2)cc1)C1CCOC2(CCC(Nc3ccc(C(F)(F)F)cc3)CC2)OO1 (mixture of isomers) ?
Met

Criterion: Activity strictly below 90%. Is it met by C=C(c1ccccc1)C1CCOC2(CCC(Nc3ccccc3)CC2)OO1 (mixture of isomers) ?
Met

---

- System: Plasmodium yoelii nigeriensis
- procedure-summary: Antimalarial activity as reduced parasitaemia against multidrug-resistant Plasmodium yoelii nigeriensis infected Swiss mice (Mus musculus) at 96mg/kg peroral dose at day 4
- Format: functional
- Design: scale not given: the % may be the effect or the level left
Threshold 90%: Activity strictly smaller gives met, otherwise not met.

Example cases with answers are listed next.
C=C(c1ccc(Cl)cc1)C1CCOC2(CCC(Nc3ccc(C(F)(F)F)cc3)CC2)OO1 (mixture of isomers) :: met
C=C(c1ccc(Cl)cc1)C1CCOC2(CCC(Nc3ccc(F)cc3)CC2)OO1 (mixture of isomers) :: met
C=C(c1ccc(Cl)cc1)C1CCOC2(CCC(=CC(=O)OCC)CC2)OO1 (mixture of isomers) :: met

Report whether reported Activity is lower than 90% (strictly) for C=C(c1ccc(-c2ccccc2)cc1)C1CCOC2(CCC(=CC(=O)OCC)CC2)OO1 (mixture of isomers)
not met
